procedure_text: logP determination by HPLC (EEC directive 79/831 Annex V. A8)
Type: physicochemical
conditions: E/Z mixture, first value (matches the E isomer); HPLC gradient method, acetonitrile/0.1% aqueous phosphoric acid
reported_property: chromatographic logP
A bare number is all that is needed in reply.

Prompt line: # query: chromatographic logP of entry CCOc1ccc(CCNC(=O)C(=NOC)c2ccc(Cl)cc2)cc1OC (racemic)
Response line: 3.08

* * *

procedure_text: logP determination by HPLC (EEC directive 79/831 Annex V. A8)
Type: physicochemical
conditions: E/Z mixture, first value (matches the E isomer); HPLC gradient method, acetonitrile/0.1% aqueous phosphoric acid
reported_property: logP
A bare number is all that is needed in reply.

compound: CCON=C(C(=O)NCCc1ccc(OCC)c(OC)c1)c1ccc(Cl)cc1 (mixture of isomers)
observed_measurement: 3.41

compound: CCON=C(C(=O)NCCc1ccc(OCC)c(OC)c1)c1ccc(CC)cc1 (mixture of isomers)
observed_measurement: 3.55

compound: CCON=C(C(=O)NCCc1ccc(OCC)c(OC)c1)c1ccc(Br)cc1 (mixture of isomers)
observed_measurement: 3.51

Prompt line: # query: logP of entry CCOc1ccc(CCNC(=O)C(=NOC)c2ccc(CC)cc2)cc1OC (mixture of isomers)
Response line: 3.21

Prompt line: Would you kindly repeat that for CCON=C(C(=O)NCCc1ccc(OCC)c(OC)c1)c1ccc(C)cc1 (mixture of isomers) ?
Response line: 3.19

Prompt line: Would you kindly repeat that for CCOc1ccc(CCNC(=O)C(=NOC)c2ccc(C)cc2)cc1OC (mixture of isomers) ?
Response line: 2.87

Prompt line: Would you kindly repeat that for CCOc1ccc(CCNC(=O)C(=NOC)c2ccc(Br)cc2)cc1OC (mixture of isomers) ?
Response line: 3.18

* * *

procedure_text: logP determination by HPLC (EEC directive 79/831 Annex V. A8)
Type: physicochemical
conditions: E/Z mixture, second printed value (matches the Z isomer); HPLC gradient method, acetonitrile/0.1% aqueous phosphoric acid
reported_property: logP
A bare number is all that is needed in reply.

Would you please look over these solved cases?
compound: CCON=C(C(=O)NCCc1ccc(OCC)c(OC)c1)c1ccc(Br)cc1 (mixture of isomers)
logP: 3.80

compound: CCOc1ccc(CCNC(=O)C(=NOC)c2ccc(Br)cc2)cc1OC (mixture of isomers)
logP: 3.44

compound: CCON=C(C(=O)NCCc1ccc(OCC)c(OC)c1)c1ccc(CC)cc1 (mixture of isomers)
logP: 3.85

Prompt line: # query: logP of entry CCON=C(C(=O)NCCc1ccc(OCC)c(OC)c1)c1ccc(Cl)cc1 (mixture of isomers)
Response line: 3.69

Prompt line: Would you kindly repeat that for CCOc1ccc(CCNC(=O)C(=NOC)c2ccc(CC)cc2)cc1OC (mixture of isomers) ?
Response line: 3.40

Prompt line: Would you kindly repeat that for CCON=C(C(=O)NCCc1ccc(OCC)c(OC)c1)c1ccc(C)cc1 (mixture of isomers) ?
Response line: 3.48

Prompt line: Would you kindly repeat that for CCOc1ccc(CCNC(=O)C(=NOC)c2ccc(C)cc2)cc1OC (mixture of isomers) ?
Response line: 3.05

* * *

procedure_text: logP determination by HPLC (EEC directive 79/831 Annex V. A8)
Format: physicochemical
conditions: single isomer (E or Z as in isomer column); HPLC gradient method, acetonitrile/0.1% aqueous phosphoric acid
reported_property: logP
A bare number is all that is needed in reply.

Would you please look over these solved cases?
compound: CCOc1ccc(CCNC(=O)C(=NOC)c2ccc(Br)cc2)cc1OC [Example 10]
logP: 3.18

compound: CCON=C(C(=O)NCCc1ccc(OCC)c(OC)c1)c1ccc(C)cc1
logP: 3.48

compound: CCOc1ccc(CCNC(=O)C(=NOC)c2ccc(CC)cc2)cc1OC [Example 16]
logP: 3.04

compound: CCOc1ccc(CCNC(=O)C(=NOC)c2ccc(C)cc2)cc1OC
logP: 2.87

compound: CCOc1ccc(CCNC(=O)C(=NOC)c2ccc(Cl)cc2)cc1OC [Example 11]
logP: 3.08

Prompt line: # query: logP of entry `CCON=C(C(=O)NCCc1ccc(OCC)c(OC)c1)c1ccc(Br)cc1`
Response line: 3.80

Prompt line: Would you kindly repeat that for CCOc1ccc(CCNC(=O)C(=NOC)c2ccc(Br)cc2)cc1OC [Example 9] ?
Response line: 3.44

Prompt line: Would you kindly repeat that for CCOc1ccc(CCNC(=O)C(=NOC)c2ccc(CC)cc2)cc1OC [Example 17] ?
Response line: 3.21

Prompt line: Would you kindly repeat that for CCOc1ccc(CCNC(=O)C(=NOC)c2ccc(Cl)cc2)cc1OC [Example 12] ?
Response line: 3.26

* * *

procedure_text: logP determination by HPLC (EEC directive 79/831 Annex V. A8)
Type: physicochemical
conditions: E/Z mixture, second printed value (matches the Z isomer); HPLC gradient method, acetonitrile/0.1% aqueous phosphoric acid
reported_property: chromatographic logP
A bare number is all that is needed in reply.

Prompt line: # query: chromatographic logP of entry CCOc1ccc(CCNC(=O)C(=NOC)c2ccc(Cl)cc2)cc1OC (racemic) [Example 1]
Response line: 3.26
